Read-out: 3-Hydroxy-3-Methylglutaryl-CoA Synthase 2 (HMGCS2), HMGCS2 (gene 3158)
Assay: LTEA_HepaRG_HMGCS2: Life Technologies and Expression Analysis (LTEA) Assay for 3-Hydroxy-3-Methylglutaryl-CoA Synthase 2 (HMGCS2) using HepaRG (AID 2283504)
Details: mRNA level, 48 h; actives raise or lower the signal
Method: LTEA_HepaRG is a cell based, multiplexed-readout assay that uses HepaRG, a human liver cell line, with measurements taken at 48 hours after chemical dosing on a 96-well plate.LTEA_HepaRG_HMGCS2 is one of 102 assay component(s) measured in the LTEA HepaRG cell culture assay. It is a marker of Steatosis.Data from the assay component LTEA_HepaRG_HMGCS2 was analyzed into 1 endpoint. […]
Active and inactive are the calls of the source. How the source made its calls: active means hit-call score of the fitted dose curve at least 0.9, where 1 is the maximum; inactive means score below 0.9.
Outcome codes: active, inactive

INSERT INTO measurements (molecule, group) VALUES
  ('Oc1ccc2ccccc2c1', 'inactive'),
  ('CC/C(=C(/CC)c1ccc(O)cc1)c1ccc(O)cc1', 'inactive'),
  ('CC(=O)N1CCN(c2ccc(OC[C@H]3CO[C@](Cn4ccnc4)(c4ccc(Cl)cc4Cl)O3)cc2)CC1', 'active'),
  ('COc1cc(C(=O)NC2CCN(C)CC2)ccc1Nc1ncc2c(n1)N(C1CCCC1)CC(F)(F)C(=O)N2C', 'active'),
  ('O=C(O)c1ccccc1C(=O)OCc1ccccc1', 'inactive'),
  ('O=c1ccc2ccccc2o1', 'inactive'),
  ('OC12N=C(c3ccccc3)SC1Cc1cc(Cl)ccc12 (configuration not stated)', 'active'),
  ('Cc1cc(F)ccc1-c1cc(N2CC[C@@H](O)[C@H]2CO)ncc1N(C)C(=O)C(C)(C)c1cc(C(F)(F)F)cc(C(F)(F)F)c1', 'active'),
  ('Oc1ccccc1', 'inactive'),
  ('O=C1c2ccccc2C(=O)N1CCc1noc(-c2ccc(CN3CCCCCC3)s2)n1', 'inactive'),
  ('CC(O)CC(C)(C)O (configuration not stated)', 'inactive'),
  ('COc1ccc2cc(S(=O)(=O)N[C@H](CC(=O)N[C@H](Cc3ccc(CN4[C@H](C)CCC[C@@H]4C)cc3)C(=O)N(C)C(C)C)c3ccc4c(c3)OCO4)ccc2c1', 'inactive'),
  ('CCCCOC(=O)CC(CC(=O)OCCCC)(OC(C)=O)C(=O)OCCCC', 'inactive'),
  ('CCCCCCCC[Si](OCC)(OCC)OCC', 'inactive'),
  ('O=C(OCCCCCCOC(=O)c1ccccc1)c1ccccc1', 'inactive'),
  ('CCCCCc1ccc(N)cc1', 'inactive'),
  ('CN(C)c1ccc(C(=C2C=CC(=[N+](C)C)C=C2)c2ccc(N(C)C)cc2)cc1', 'active'),
  ('CCN(Cc1cccc(S(=O)(=O)O)c1)c1ccc(C(=C2C=CC(=[N+](CC)Cc3cccc(S(=O)(=O)O)c3)C=C2)c2ccccc2S(=O)(=O)[O-])cc1', 'inactive'),
  ('Cc1occc1C(=O)Nc1ccc(C(=O)N2CCC(F)(F)/C(=C\C(=O)N3CCC(N4CCCCC4)CC3)c3ccccc32)cc1', 'active'),
  ('CCOC(=O)O[C@H](C)OC(=O)c1ccc2c(c1)cc(C(=O)NC1CCN(C(C)C)CC1)n2Cc1cc(-c2ccc(Cl)s2)on1', 'inactive'),
  ('CC[C@H](NC(=O)c1cc(F)ccc1NS(=O)(=O)c1cccc2cccnc12)c1ccccc1', 'active'),
  ('O=C1CCC(C2CCCCC2)CC1', 'inactive');

Every entry's value here was drawn from PubChem BioAssay (EPA / NIEHS).
